ASSAY EXPLANATION: photoluminescence quantum yield (fraction); solvent given as SMILES
MEASUREMENT SETUP: in CS(C)=O
METRIC: photoluminescence quantum yield
Give bare numbers.

// solved cases for photoluminescence quantum yield follow
CHEMICAL STRING: CC1(C)C(/C=C/C=C/c2cc3ccc(O)cc3oc2=O)=[N+](CCCS(=O)(=O)[O-])c2ccccc21
TEST RESULT: 0.013

CHEMICAL STRING: NNC(=O)NNN1C(=O)c2cc(S(=O)(=O)[O-])cc3c(N)c(S(=O)(=O)[O-])cc(c23)C1=O
TEST RESULT: 0.59

CHEMICAL STRING: CC(C)[Si]1(C(C)C)c2cc(C=O)ccc2-c2ccc(N(C)C)cc21
TEST RESULT: 0.57

CHEMICAL STRING: CC1=N/C(=C\c2ccccc2N)C(=O)N1C
TEST RESULT: 0.007

CHEMICAL STRING: COc1cccc2oc(-c3cc4c(OC)cccc4oc3=O)cc12
TEST RESULT: 0.68

From here, focus on the item given below.
Give photoluminescence quantum yield for "c1csc(-c2nc3ccccc3c3cc4ccccn4c23)c1"
0.2

Origin of the recorded values: the Deep4Chem optical property database
